Ref: ChEMBL document CHEMBL3045433

# Test system: Oryza sativa
# test details: Induction of PBZ1 gene expression in three-leaf stage of Oryza sativa (rice) plant leaf after 5 days by Northern blot analysis
# Type: functional, organism-based
endpoint name: Activity

C=CCOC1=NS(=O)(=O)c2ccccc21: Dose-dependent effect
N#CCNC(=O)c1ccnc(Cl)c1: Dose-dependent effect
CSC(=O)c1cccc2nnsc12: Dose-dependent effect
Cn1nc(Cl)cc1C(=O)O: Dose-dependent effect
